target: α-glucosidase (yeast, type I) (Saccharomyces cerevisiae); construct: purchased Sigma Chemical Co; host or cells: yeast; assay: glucosidase inhibitory activity, p-nitrophenyl α-D-glucopyranoside as substrate; assay type: biochemical; settings: substrate 0.01 M p-nitrophenyl α-D-glucopyranoside, pH 6.8, 37° C., read-out: IC50 (concentration of 50% inhibition)

>  <compound_structure_string>
N[C@H]1C[C@](O)(CO)[C@@H](O)[C@H](O)[C@H]1O

>  <IC50 [µM]>
1100

$$$$

* * *

assay: toxicity (LD50) in rats; details: rat, in vivo

>  <compound>
N[C@H]1C[C@](O)(CO)[C@@H](O)[C@H](O)[C@H]1O [valiolamine]

>  <LD50>
≥ 500 mg/kg

$$$$

* * *

molecular target: α-glucosidase (yeast, type I) (Saccharomyces cerevisiae, UniProt P53341); construct: purchased Sigma Chemical Co; host or cells: yeast; test: glucosidase inhibitory activity, maltose as substrate; format: biochemical; details: substrate 0.05 M maltose, pH 6.8, 37° C., read-out: IC50 (concentration of 50% inhibition)
Sequence (P53341 whole entry): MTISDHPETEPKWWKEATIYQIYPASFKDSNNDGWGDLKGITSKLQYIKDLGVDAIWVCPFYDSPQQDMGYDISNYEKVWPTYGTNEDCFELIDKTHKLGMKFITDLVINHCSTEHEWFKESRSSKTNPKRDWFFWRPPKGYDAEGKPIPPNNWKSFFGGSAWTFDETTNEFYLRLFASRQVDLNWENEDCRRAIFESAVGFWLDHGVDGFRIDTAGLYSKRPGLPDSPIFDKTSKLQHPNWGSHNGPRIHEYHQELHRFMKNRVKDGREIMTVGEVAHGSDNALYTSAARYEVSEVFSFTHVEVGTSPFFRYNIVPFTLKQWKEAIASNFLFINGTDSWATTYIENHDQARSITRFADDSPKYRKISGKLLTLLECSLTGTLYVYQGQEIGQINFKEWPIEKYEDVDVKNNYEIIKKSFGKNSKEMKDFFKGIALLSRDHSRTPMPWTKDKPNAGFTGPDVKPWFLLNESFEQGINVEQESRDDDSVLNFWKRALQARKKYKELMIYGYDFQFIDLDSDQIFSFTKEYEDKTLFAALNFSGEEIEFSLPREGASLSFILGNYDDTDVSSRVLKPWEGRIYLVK
From the text: […]

>  <compound>
N[C@H]1C[C@](O)(CO)[C@@H](O)[C@H](O)[C@H]1O [valiolamine]

>  <IC50 (µM)>
190

$$$$

Entry source: patent US4446319A
